- procedure text: Binding affinity to bacterial 16S RNA ribosomal A site by surface plasmon technique
Kd by entry:

{"compound": "Cc1cn([C@H]2C[C@H](O)[C@@H](C(=O)NCCCCCCN[C@H]3[C@@H](O)[C@H](N)C[C@H](N)[C@H]3O[C@H]3O[C@H](CN)[C@@H](O)[C@H](O)[C@H]3N)O2)c(=O)[nH]c1=O", "Kd": "56 µM"}
{"compound": "NC[C@H]1O[C@H](O[C@H]2[C@@H](NCCCCCCNC(=O)[C@H]3O[C@@H](n4cnc5c(N)ncnc54)[C@H](O)[C@@H]3O)[C@@H](O)[C@H](N)C[C@@H]2N)[C@H](N)[C@@H](O)[C@@H]1O", "Kd": "17 µM"}
{"compound": "NC[C@H]1O[C@H](O[C@H]2[C@@H](NCCNC(=O)[C@H]3O[C@@H](n4ccc(N)nc4=O)[C@H](O)[C@@H]3O)[C@@H](O)[C@H](N)C[C@@H]2N)[C@H](N)[C@@H](O)[C@@H]1O", "Kd": "79 µM"}
{"compound": "NC[C@H]1O[C@H](O[C@H]2[C@@H](NCCNC(=O)[C@H]3O[C@@H](n4ccc(=O)[nH]c4=O)[C@H](O)[C@@H]3O)[C@@H](O)[C@H](N)C[C@@H]2N)[C@H](N)[C@@H](O)[C@@H]1O", "Kd": "13 µM"}
{"compound": "Cc1cn([C@H]2C[C@H](O)[C@@H](C(=O)NCCN[C@H]3[C@@H](O)[C@H](N)C[C@H](N)[C@H]3O[C@H]3O[C@H](CN)[C@@H](O)[C@H](O)[C@H]3N)O2)c(=O)[nH]c1=O", "Kd": "9 µM"}

Task: State the recorded Kd for this entry: NC[C@H]1O[C@H](O[C@H]2[C@@H](NCCCCCCNC(=O)[C@H]3O[C@@H](n4ccc(N)nc4=O)[C@H](O)[C@@H]3O)[C@@H](O)[C@H](N)C[C@@H]2N)[C@H](N)[C@@H](O)[C@@H]1O
Result: 104 µM

Task: Same thing, different compound: Cc1cn([C@H]2C[C@H](O)[C@@H](CO[C@@H]3O[C@H](CO[C@@H]4O[C@H](CN)[C@@H](O)[C@H](O)[C@H]4N)[C@@H](O)[C@H](O)[C@H]3N)O2)c(=O)[nH]c1=O
Result: 667 µM

Task: Same thing, different compound: NC[C@H]1O[C@@H](OC[C@H]2O[C@@H](OC[C@H]3O[C@@H](n4ccc(=O)[nH]c4=O)[C@H](O)[C@@H]3O)[C@H](N)[C@@H](O)[C@@H]2O)[C@H](N)[C@@H](O)[C@@H]1O
Result: 2000 µM

Task: Same thing, different compound: NC[C@H]1O[C@@H](OC[C@H]2O[C@@H](SCCCCCCSC[C@H]3O[C@@H](n4ccc(=O)[nH]c4=O)[C@H](O)[C@@H]3O)[C@H](N)[C@@H](O)[C@@H]2O)[C@H](N)[C@@H](O)[C@@H]1O
Result: 1100 µM

Task: Same thing, different compound: NC[C@H]1O[C@H](O[C@H]2[C@@H](NCCNC(=O)[C@H]3O[C@@H](n4cnc5c(N)ncnc54)[C@H](O)[C@@H]3O)[C@@H](O)[C@H](N)C[C@@H]2N)[C@H](N)[C@@H](O)[C@@H]1O
Result: 10 µM

Task: Same thing, different compound: NC[C@H]1O[C@@H](OC[C@H]2O[C@@H](OCCSC[C@H]3O[C@@H](n4ccc(N)nc4=O)[C@H](O)[C@@H]3O)[C@H](N)[C@@H](O)[C@@H]2O)[C@H](N)[C@@H](O)[C@@H]1O
Result: 667 µM

Task: Same thing, different compound: NC[C@H]1O[C@@H](SCCCCCCSC[C@H]2O[C@@H](n3ccc(=O)[nH]c3=O)[C@H](O)[C@@H]2O)[C@H](N)[C@@H](O)[C@@H]1O
Result: 1250 µM

Task: Same thing, different compound: Cc1cn([C@H]2C[C@H](O)[C@@H](CSCCCCCCS[C@@H]3O[C@H](CN)[C@@H](O)[C@H](O)[C@H]3O)O2)c(=O)[nH]c1=O
Result: 117 µM

Task: Same thing, different compound: Cc1cn([C@H]2C[C@H](O)[C@@H](CSCCO[C@@H]3O[C@H](CO[C@@H]4O[C@H](CN)[C@@H](O)[C@H](O)[C@H]4N)[C@@H](O)[C@H](O)[C@H]3N)O2)c(=O)[nH]c1=O
Result: 370 µM

Task: Same thing, different compound: Cc1cn([C@H]2C[C@H](O)[C@@H](CSCCCCCCS[C@@H]3O[C@H](COC4O[C@H](CN)[C@@H](O)[C@H](O)[C@H]4N)[C@@H](O)[C@H](O)[C@H]3O)O2)c(=O)[nH]c1=O (stereo partly specified)
Result: 400 µM

Task: Same thing, different compound: Cc1cn([C@@H]2O[C@H](C(=O)NCCCCCCN[C@H]3[C@@H](O)[C@H](N)C[C@H](N)[C@H]3O[C@H]3O[C@H](CN)[C@@H](O)[C@H](O)[C@H]3N)[C@@H](O)[C@H]2O)c(=O)[nH]c1=O
Result: 38 µM

Source: ChEMBL document CHEMBL1158176
